system: SEM cells; assay: cell viability relative to DMSO control; higher = less cytotoxic; details: RPMI 5 mM glucose + 10% FBS; 48 h; 0.0632 µM
Catalogue of compounds with associated cell viability
reported endpoint: cell viability (%)

{"columns": ["structure smiles string", "result value"],
 "data": [
  ["O=c1[nH]c2ccccc2n1C1CCN(Cc2ccc(-c3nc4cc5nc[nH]c5cc4nc3-c3ccccc3)cc2)CC1", 75.1],
  ["CC(C)=CC[C@@H](O)C/1=C/C(=O)C2=C(O)C=CC(=C2C1=O)O", 93.2],
  ["Nc1ncnc2c1c(-c1cnc3[nH]ccc3c1)nn2C1CCCC1", 94.8],
  ["CC(C)CC(=O)N[C@H](C(=O)N[C@H](C(=O)N[C@@H](CC(C)C)[C@@H](O)CC(=O)N[C@@H](C)C(=O)N[C@@H](CC(C)C)[C@@H](O)CC(=O)O)C(C)C)C(C)C", 68.1]
]}
